TEST_NAME: Encapsulation efficiency of RNA in nanoparticle compositions (RIBOGREEN assay)
Type: physicochemical
MEASUREMENT_CONDITIONS: Table 1A; lipid:DSPC:cholesterol:PEG-DMG 50:10:38.5:1.5 mol %
Description: For nanoparticle compositions including an RNA, a QUANT-IT™ RIBOGREEN® RNA assay (Invitrogen Corporation Carlsbad, Calif.) can be used to evaluate the encapsulation of an RNA by the nanoparticle composition. […] The fluorescence intensity can be measured using a fluorescence plate reader (Wallac Victor 1420 Multilabel Counter; Perkin Elmer, Waltham, Mass.) at an excitation wavelength of, for example, about 480 nm and an emission wavelength of, for example, about 520 nm. […]
Threshold 90%: EE strictly smaller gives t, otherwise f.

Take the molecule CCCCCCCCC(CCCCCCCC)C(=O)OCCCCCCCN(CCO)C(C)CCCCCCCCOC(=O)CCCCCCC (centres unmarked) [Compound 162] and say whether its EE is less than 90%. f

Can you handle CCCCCCCCCOC(=O)CCCCCCCN(CCCCCCCC(=O)OC(CCCCCCCC)CCCCCCCC)CCCNC(=O)CO [Compound 198] next? f

Can you handle CCCCCCCCCOC(=O)CCCCCCCN(CCCCCCCC(=O)OC(CCCCCCCC)CCCCCCCC)C1CCCCC1O (centres unmarked) [Compound 22] next? f

Can you handle CCCCCCCCCCCOC(=O)CCCCCN(CCO)CCCCCCCC(=O)N(CCCCCCCC)CCCCCCCC [Compound 129] next? t

====

System: modified luciferase
TEST_NAME: Luciferase expression in liver, lung, spleen and femur 6 hours after intravenous administration to mice
Format: in vivo
MEASUREMENT_CONDITIONS: liver, 6 hours after intravenous 0.5 mpk, mice
Let's look at some compounds and their measured Total Flux, Liver.
Respond numerically, and do not add a unit to the figure.

GET /values?readout=Total Flux, Liver&item= CCCCCCCCC(CCCCCC)C(=O)OCCCCCCCCCN(CCO)CCCCCCCCCOC(=O)C(CCCCCC)CCCCCCCC (stereo not shown) 2.94E+09

====

TEST_NAME: Encapsulation efficiency of RNA in nanoparticle compositions (RIBOGREEN assay)
Type: physicochemical
MEASUREMENT_CONDITIONS: Table 1A; lipid:DSPC:cholesterol:PEG-DMG 50:10:38.5:1.5 mol %
REPORTED_ENDPOINT: EE (%)
Return type: number; implicit unit %.

Solved cases (2 shown):
CCCCCCCCCOC(=O)CCCCCCCN(CCO)CCCCCCCC(=O)OC(CC)CC: 94.44
CCCCCCCCCOC(=O)CCCCCCCN(CCCCCCCC(=O)OC(CCCCCCCC)CCCCCCCC)CCN(C)C: 95.24

GET /values?readout=EE&item= `CCCCCCCCCOC(=O)CCCCCCCN(CCCCO)CCCCCCCC(=O)OC(CCCCCCCC)CCCCCCCC` 96.72

Can you handle CCCCCCCCC(CCCCCCCC)OC(=O)CCCCCCCN(CCO)CCCC(=O)OC(CCCCC)CCCCCCCC (stereo not shown) next? 97.54

====

Let's look at some molecules and their measured EE.
TEST_NAME: Encapsulation efficiency of RNA in nanoparticle compositions (RIBOGREEN assay)
Format: physicochemical
MEASUREMENT_CONDITIONS: Table 1A; lipid:DSPC:cholesterol:PEG-DMG 50:10:38.5:1.5 mol %
Return type: number; implicit unit %.

GET /values?readout=EE&item= CCCCCCCCCOC(=O)CCCCCCCN(CCO)CCCCCCCC(=O)OC1CCC(CCCCC)CC1 (stereo not drawn) [Compound 79] 89.1

Can you handle CCCCCCCCCOC(=O)CCCCCCCN(CCO)CCCCCCCC(=O)OC(CCCCC)CCCCCCCC (stereo not drawn) [Compound 33] next? 95.66

Can you handle CCCCCCCCCOC(=O)CCCCCCCN(CCCCCCCC(=O)OC(CCCCCCCC)CCCCCCCC)CCCN/C(=N/[N+](=O)[O-])NC [Compound 200] next? 97.65

Can you handle CCCCCCCCCOC(=O)CCCCCCCN(CCO)CCCCCCCOC(=O)C(CCCCCCCC)CCCCCCCC [Compound 30] next? 95.69

Can you handle CCCCCCCCC(CCCCCCCC)OC(=O)CCCCCCCN(CCO)C(C)CCCCCCCCOC(=O)CCCCCCC (stereo not drawn) [Compound 161] next? 94.3

Can you handle CCCCCCCCCOC(=O)CCCCCCCN(CCCCCCCC(=O)OC(CCCCCCCC)CCCCCCCC)CCN1CCOCC1 [Compound 103] next? 90.77

Can you handle CCCCCCCCC(C)OC(=O)CCCCCCCN(CCO)CCCCCCCC(=O)OC(CCCCCCCC)CCCCCCCC (stereo not drawn) [Compound 48] next? 96.55

Can you handle CCCCCCCCCOC(=O)CCCCCCCN(CCC#N)CCCCCCCC(=O)OC(CCCCCCCC)CCCCCCCC [Compound 21] next? −15.1

Can you handle CCCCCCCCC(CCCCCC)C(=O)OCCCCCCCCCN(CCO)CCCCCCCCCOC(=O)C(CCCCCC)CCCCCCCC (stereo not drawn) [Compound 133] next? 91.48

Can you handle CCCCCCCCCOC(=O)CCCCCCCN(CCO)CCCCCCCCCOC(=O)C(CCCCCC)CCCCCCCC (stereo not drawn) [Compound 134] next? 94.62

Can you handle CCCCCCCCCOC(=O)CCCCCCCN(CCCCCCCC(=O)OC(CCCCCCCC)CCCCCCCC)CC(O)CC (stereo not drawn) [Compound 13] next? 92.28

Can you handle CCCCCCCCC(CCCCCCCC)OC(=O)CCCCCCCN(CCO)CCCC(=O)OC(CCCCCC)CCCCCCCC (stereo not drawn) [Compound 73] next? 95.7

Can you handle CCCCCCCOC(=O)CCCCCCCCCN(CCO)CCCCCCCCCC(=O)OC(CCCCCC)CCCCCC [Compound 186] next? 87.2

Can you handle CCCCCCCCCOC(=O)CCCCCCCN(CCCCCCCC(=O)OC(CCCCCCCC)CCCCCCCC)CC(C)O (stereo not drawn) [Compound 10] next? 89.60

Can you handle CCCCCCCCCOC(=O)C(C)CCCCCCN(CCO)CCCCCCCC(=O)OC(CCCCCCCC)CCCCCCCC (stereo not drawn) [Compound 164] next? 91.2

====

TEST_NAME: Encapsulation efficiency of RNA in nanoparticle compositions (RIBOGREEN assay)
Type: physicochemical
MEASUREMENT_CONDITIONS: Table 1A; lipid:DSPC:cholesterol:PEG-DMG 50:10:38.5:1.5 mol %
Threshold 90%: EE strictly smaller gives satisfied, otherwise not satisfied.

As a guide, the following entries are already answered.
CCCCCCCCCN(CCCCCCCC(=O)OC(CCCCCCCC)CCCCCCCC)CCCn1ccnc1: not satisfied
CCCCCCCCCN(CCCO)CCCCCCCC(=O)OC(CCCCCCCC)CCCCCCCC: satisfied
CCCCCCCCCOC(=O)CCCCCCCN(CCO)CCCCCCCC(=O)OC(CCCCCC)CCCCCC: not satisfied
CCCCCCCCCOC(=O)CCCCCCCN(CCCCCCCC(=O)OC(CCCCCCCC)CCCCCCCC)CCCNC(=O)COC: not satisfied
CCCCCCCCCOC(=O)CCCCCCCN(CCCCCCCC(=O)OC(CCCCCCCC)CCCCCCCC)CCCn1ccnn1: not satisfied

Take the compound CCCCCCCCCOC(=O)CCCCCCCN(CCCCCCCC(=O)OC(CCCCCCCC)CCCCCCCC)C(C)CO (stereo not shown) and say whether its EE is less than 90%. not satisfied

Can you handle `CCCCCCCCCOC(=O)CCCCCCCN(CCO)CCCCCCCC(=O)OC(COCCCCCC)COCCCCCC` next? satisfied

Can you handle `CCCCCCCCC(CCCCCCCC)OC(=O)CCCCCCCN(CCO)CCCC(=O)OCCCCCCC` next? not satisfied

Can you handle `CCCCCC/C=C\COC(=O)CCCCCCCN(CCO)CCCCCCCC(=O)OC/C=C\CCCCCC` next? satisfied

Can you handle `CCCCCCCCCCCOC(=O)CCCCCN(CCO)CCCCCC(=O)OC(CCCCCCCCCC)CCCCCCCCCC` next? not satisfied

Can you handle CCCCCCCCCOC(=O)CCCCCCCN(CCO)CCCCCCCC(=O)OC(C)CCCCCCCC (stereo not shown) next? satisfied

Can you handle `CCCCCCCCCOC(=O)CCCCCCCN(CCO)CCCCCCCC(=O)OC1CCCCCCCCCCCCCC1` next? not satisfied

Can you handle CCCCCCCCCC(C)(O)CCCCCCCCN(CCO)CCCCCCCC(=O)OC(CCCCCCCC)CCCCCCCC (stereo not shown) next? satisfied

====

Let's look at some compounds and their measured Total Flux, Lung.
Tested on: modified luciferase
TEST_NAME: Luciferase expression in liver, lung, spleen and femur 6 hours after intravenous administration to mice
Assay type: in vivo
MEASUREMENT_CONDITIONS: lung, 6 hours after intravenous 0.5 mpk, mice
Respond numerically, and do not add a unit to the figure.

Solved cases (3 shown):
CCCCCCCCC(CCCCCCCC)OC(=O)CCCCCCCN(CCO)CCCCCCCC: 6.22E+07
CCCCCCCCC(C)OC(=O)CCCCCCCN(CCO)CCCCCCCC(=O)N(CCCCCCCC)CCCCCCCC (centres unmarked): 5.88E+07
CCCCCCCCCOC(=O)CCCCCCCN(CCO)CCCCCCCOP(=O)(OCCCCCCCC)OCCCCCCCC: 1.45E+07

GET /values?readout=Total Flux, Lung&item= `CCCCCCCCCC(=O)OCCCCCCCN(CCO)CCCCCCCC(=O)OC(CCCCCCCC)CCCCCCCC` 3.43E+07

Can you handle CCCCCCCCCOC(=O)CCCCCCCN(CCO)CCCCCCCC(=O)OC(CC)CCCCCCCC (centres unmarked) next? 2.06E+06

Can you handle `CCCCCCCCCCCCCCN(CCO)CCCCCCCC(=O)OC(CCCCCCCC)CCCCCCCC` next? 2.52E+07

Can you handle `CCCCCCCCCOC(=O)CCCCCCCN(CCO)CCCCCCCC(=O)OC(CCCCCC)CCCCCC` next? 4.62E+06

Can you handle `CCCC/C=C\CCC(CC/C=C\CCCC)OC(=O)CCCCCCCN(CCO)CCCCCC(=O)OCCCCCCCCCCC` next? 3.56E+06

Values were extracted from patent US10857105B2.
